# TESTED_SYSTEM: Human recombinant PDE2A (hPDE2A) (Homo sapiens)
# Construct: His tag (inferred from metal chelate purification); made in house; host or cells: Sf9 insect cells (baculovirus)
# ASSAY_REMARKS: In vitro assay PDE2A (SPA, 3H-cGMP hydrolysis)
# Type: biochemical
# CONDITION_DETAILS: read-out: hPDE2A Emax
The entries below come with measured Emax values attached.
Write the number in % without appending the unit.

Worked examples follow.
{"columns": ["MOLECULE", "TESTED_SYSTEM", "DATA_VALUE"],
 "data": [
  ["C[C@@H]1CCN(C(=O)c2ncccc2C(F)(F)F)C[C@H]1c1cc(C(F)F)nc2ncnn12 [Compound 253]", "Human recombinant PDE2A (hPDE2A) (Homo sapiens)", 95],
  ["C[C@@H]1CCN(C(=O)c2cccc(C#N)c2)C[C@H]1c1cc(C(F)F)nc2ncnn12 [Compound 197]", "Human recombinant PDE2A (hPDE2A) (Homo sapiens)", 98],
  ["COc1ccc(C(=O)N2CC[C@@H](C)[C@H](c3cc(C(F)F)nc4ncnn34)C2)cc1C#N [Compound 265]", "Human recombinant PDE2A (hPDE2A) (Homo sapiens)", 102],
  ["CN1CCOc2cc(C(=O)N3[C@H]4CC[C@H](c5cc(C(F)F)nc6ncnn56)[C@@H]3CC4)ccc21 [Compound 378]", "Human recombinant PDE2A (hPDE2A) (Homo sapiens)", 99]
]}

Item C[C@@H]1CCN(C(=O)c2cnc(Cl)c(Cl)c2)C[C@H]1c1cc(C(F)F)nc2ncnn12 [Compound 64] has what recorded Emax?
99

Item Cc1cc(C(=O)N2CC[C@@H](C)[C@H](c3cc(C(F)F)nc4ncnn34)C2)c(F)c(C2CC2)n1 [Compound 278] has what recorded Emax?
99

Item CCCC[C@H]1CCN(C(=O)c2cc(C)nc(C)c2)C[C@H]1c1cc(C(F)F)nc2ncnn12 (mixture of isomers) [Compound 219] has what recorded Emax?
100

Item Cc1cc([C@@H]2CN(C(=O)c3ccn(C)c3)CC[C@H]2C)n2ncnc2n1 [Compound 14] has what recorded Emax?
99

Item C[C@@H]1CCN(C(=O)c2cc(C(C)(C)C)cc(C(C)(C)C)c2)C[C@H]1c1cc(C(F)F)nc2ncnn12 [Compound 259] has what recorded Emax?
99

Item C[C@@H]1CCN(C(=O)c2c(F)cccc2F)C[C@H]1c1cc(C(F)F)nc2ncnn12 [Compound 149] has what recorded Emax?
99

Item COc1cc(C(=O)N2[C@H]3CC[C@H](c4cc(C(F)F)nc5ncnn45)[C@@H]2CC3)ccc1F [Compound 343] has what recorded Emax?
102

Item Cc1cc([C@@H]2CN(C(=O)c3cc(C)c(C)cn3)CC[C@H]2C)n2ncnc2n1 [Compound 3a] has what recorded Emax?
97

Item COc1cc(C(=O)N2[C@H]3CC[C@H](c4cc(C(F)F)nc5ncnn45)[C@@H]2CC3)ccc1Cl [Compound 336] has what recorded Emax?
101

Item Cc1cc(C(=O)N2[C@H]3CC[C@@H]2[C@H](c2cc(C(F)F)nc4ncnn24)CC3)cc(C)n1 [Compound 30] has what recorded Emax?
77

Item Cc1nn(C)c2sc(C(=O)N3[C@H]4CC[C@H](c5cc(C(F)F)nc6ncnn56)[C@@H]3CC4)cc12 [Compound 335] has what recorded Emax?
102

----------
# TESTED_SYSTEM: Human recombinant PDE3A (hPDE3A) (Homo sapiens)
# Construct: purchased Scottish Biomedical; host or cells: Sf9 insect cells
# Sequence (Q14432 whole entry): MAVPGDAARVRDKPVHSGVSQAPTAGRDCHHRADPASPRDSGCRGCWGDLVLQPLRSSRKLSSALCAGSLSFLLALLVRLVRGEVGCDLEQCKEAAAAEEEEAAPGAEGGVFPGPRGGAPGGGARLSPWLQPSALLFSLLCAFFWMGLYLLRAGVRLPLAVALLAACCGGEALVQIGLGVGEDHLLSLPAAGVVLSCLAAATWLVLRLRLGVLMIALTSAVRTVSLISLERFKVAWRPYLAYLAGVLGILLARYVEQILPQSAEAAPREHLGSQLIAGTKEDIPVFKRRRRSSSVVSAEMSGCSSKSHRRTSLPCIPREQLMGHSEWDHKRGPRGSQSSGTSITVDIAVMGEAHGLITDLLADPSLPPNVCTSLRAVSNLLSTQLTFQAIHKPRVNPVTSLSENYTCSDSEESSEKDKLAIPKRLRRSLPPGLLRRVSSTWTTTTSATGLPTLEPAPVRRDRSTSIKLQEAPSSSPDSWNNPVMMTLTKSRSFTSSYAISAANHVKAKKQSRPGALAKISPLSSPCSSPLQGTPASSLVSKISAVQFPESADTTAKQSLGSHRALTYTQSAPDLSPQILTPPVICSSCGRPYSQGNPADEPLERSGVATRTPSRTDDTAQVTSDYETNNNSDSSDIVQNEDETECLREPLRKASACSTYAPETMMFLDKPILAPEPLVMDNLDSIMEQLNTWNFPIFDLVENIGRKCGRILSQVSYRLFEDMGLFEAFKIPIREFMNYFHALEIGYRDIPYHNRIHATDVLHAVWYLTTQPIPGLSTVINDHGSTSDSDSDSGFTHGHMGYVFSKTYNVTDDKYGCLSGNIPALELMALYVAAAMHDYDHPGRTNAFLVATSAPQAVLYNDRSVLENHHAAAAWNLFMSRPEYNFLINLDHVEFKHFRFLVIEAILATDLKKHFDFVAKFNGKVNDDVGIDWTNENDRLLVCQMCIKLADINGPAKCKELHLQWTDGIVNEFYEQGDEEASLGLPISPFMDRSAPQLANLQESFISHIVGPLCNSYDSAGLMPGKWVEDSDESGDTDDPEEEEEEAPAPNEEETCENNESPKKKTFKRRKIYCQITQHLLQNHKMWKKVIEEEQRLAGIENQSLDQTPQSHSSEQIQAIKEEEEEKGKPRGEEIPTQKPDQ
# ASSAY_REMARKS: In vitro assay PDE3A (SPA, 3H-cAMP hydrolysis);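 further: the method names PDE3A and the table heading PDE3B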
# Type: biochemical
# CONDITION_DETAILS: hPDE3B pIC50; read-out: pIC50 (converted)
The entries below come with measured IC50 values attached.
Write the number in µM without appending the unit.

Worked examples follow.
{"columns": ["SMILES_ENTRY", "IC50, µM"],
 "data": [
  ["COc1nc(C)cc(C(=O)N2CC[C@@H](C)[C@H](c3cc(C(F)F)nc4ncnn34)C2)c1F", 1.7],
  ["Cc1cc(C(=O)N2CC[C@@H](C)[C@H](c3cc(C(F)F)nc4ncnn34)C2)cc(C)c1C#N", 1.58],
  ["Cc1cc(C(=O)N2CC[C@@H](C)[C@H](c3cc(C(F)F)nc4ncnn34)C2)cc(Cl)c1F", 1.95],
  ["C[C@@H]1CCN(C(=O)c2cn(C)c3ccccc23)C[C@H]1c1cc(C(F)F)nc2ncnn12", 1.48]
]}

Item `C[C@@H]1CCN(C(=O)c2ccc(Cl)c(Cl)c2)C[C@H]1c1cc(C(F)F)nc2ncnn12` has what recorded IC50?
1.05

Item `O=C(c1ccc(Cl)s1)N1[C@H]2CC[C@H](c3cc(C(F)F)nc4ncnn34)[C@@H]1CC2` has what recorded IC50?
6.31

----------
# TESTED_SYSTEM: Human recombinant PDE2A (hPDE2A) (Homo sapiens, UniProt O00408)
# Construct: His tag (inferred from metal chelate purification); made in house; host or cells: Sf9 insect cells (baculovirus)
# Sequence (O00408 whole entry): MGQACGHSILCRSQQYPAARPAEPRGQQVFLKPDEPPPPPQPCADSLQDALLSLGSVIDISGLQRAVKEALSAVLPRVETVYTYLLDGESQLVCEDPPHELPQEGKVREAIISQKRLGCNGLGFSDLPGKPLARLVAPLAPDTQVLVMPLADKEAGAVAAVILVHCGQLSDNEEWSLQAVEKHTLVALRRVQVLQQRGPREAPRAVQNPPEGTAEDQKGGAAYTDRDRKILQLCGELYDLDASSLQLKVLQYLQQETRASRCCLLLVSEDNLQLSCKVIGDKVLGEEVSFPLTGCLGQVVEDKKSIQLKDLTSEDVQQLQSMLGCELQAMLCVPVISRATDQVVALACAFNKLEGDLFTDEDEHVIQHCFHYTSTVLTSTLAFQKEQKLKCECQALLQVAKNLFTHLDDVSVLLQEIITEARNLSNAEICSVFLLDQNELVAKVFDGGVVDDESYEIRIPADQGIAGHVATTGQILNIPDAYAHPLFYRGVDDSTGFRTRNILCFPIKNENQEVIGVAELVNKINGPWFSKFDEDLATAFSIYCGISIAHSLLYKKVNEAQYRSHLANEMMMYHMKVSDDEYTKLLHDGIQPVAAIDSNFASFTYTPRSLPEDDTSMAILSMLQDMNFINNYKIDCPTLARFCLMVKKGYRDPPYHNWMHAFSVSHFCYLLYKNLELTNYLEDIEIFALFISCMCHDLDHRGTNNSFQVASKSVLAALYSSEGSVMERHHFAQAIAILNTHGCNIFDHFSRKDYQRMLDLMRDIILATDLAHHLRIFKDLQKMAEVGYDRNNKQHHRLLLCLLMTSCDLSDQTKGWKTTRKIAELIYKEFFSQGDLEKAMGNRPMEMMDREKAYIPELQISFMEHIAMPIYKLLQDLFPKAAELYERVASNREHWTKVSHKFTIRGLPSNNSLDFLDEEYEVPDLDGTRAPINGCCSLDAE
# ASSAY_REMARKS: In vitro assay PDE2A (SPA, 3H-cGMP hydrolysis)
# Type: biochemical
# CONDITION_DETAILS: read-out: hPDE2A Emax
The entries below come with measured Emax values attached.
Write the number in % without appending the unit.

Worked examples follow.
{"columns": ["COMPOUND", "Emax, %"],
 "data": [
  ["COc1ncc(C(=O)N2CC[C@@H](C)[C@H](c3cc(C(F)F)nc4ncnn34)C2)cc1C1CC1 [Compound 73]", 101],
  ["C[C@@H]1CCN(C(=O)c2cc(Cl)cnc2C(F)(F)F)C[C@H]1c1cc(C(F)F)nc2ncnn12 [Compound 39]", 98],
  ["C[C@@H]1CCN(C(=O)c2cccc(N)n2)C[C@H]1c1cc(C(F)F)nc2ncnn12 [Compound 162]", 97],
  ["Cc1cc([C@@H]2CN(C(=O)c3ccc4nccn4c3)CC[C@H]2C)n2ncnc2n1 [Compound 99]", 100],
  ["Cc1cnc(C(F)(F)F)cc1C(=O)N1CC[C@@H](C)[C@H](c2cc(C(F)F)nc3ncnn23)C1 [Compound 52]", 101]
]}

Item CC(C)c1n[nH]cc1C(=O)N1CC[C@@H](C)[C@H](c2cc(C(F)F)nc3ncnn23)C1 [Compound 61] has what recorded Emax?
101

Item O=C(c1cn2ccsc2n1)N1[C@H]2CC[C@H](c3cc(C(F)F)nc4ncnn34)[C@@H]1CC2 [Compound 360] has what recorded Emax?
97

----------
# TESTED_SYSTEM: Human recombinant PDE10A (hPDE10A) (Homo sapiens, UniProt Q9Y233)
# Construct: His tag (inferred from metal chelate purification); made in house; host or cells: Sf9 insect cells (baculovirus)
# Sequence (Q9Y233 267-1055): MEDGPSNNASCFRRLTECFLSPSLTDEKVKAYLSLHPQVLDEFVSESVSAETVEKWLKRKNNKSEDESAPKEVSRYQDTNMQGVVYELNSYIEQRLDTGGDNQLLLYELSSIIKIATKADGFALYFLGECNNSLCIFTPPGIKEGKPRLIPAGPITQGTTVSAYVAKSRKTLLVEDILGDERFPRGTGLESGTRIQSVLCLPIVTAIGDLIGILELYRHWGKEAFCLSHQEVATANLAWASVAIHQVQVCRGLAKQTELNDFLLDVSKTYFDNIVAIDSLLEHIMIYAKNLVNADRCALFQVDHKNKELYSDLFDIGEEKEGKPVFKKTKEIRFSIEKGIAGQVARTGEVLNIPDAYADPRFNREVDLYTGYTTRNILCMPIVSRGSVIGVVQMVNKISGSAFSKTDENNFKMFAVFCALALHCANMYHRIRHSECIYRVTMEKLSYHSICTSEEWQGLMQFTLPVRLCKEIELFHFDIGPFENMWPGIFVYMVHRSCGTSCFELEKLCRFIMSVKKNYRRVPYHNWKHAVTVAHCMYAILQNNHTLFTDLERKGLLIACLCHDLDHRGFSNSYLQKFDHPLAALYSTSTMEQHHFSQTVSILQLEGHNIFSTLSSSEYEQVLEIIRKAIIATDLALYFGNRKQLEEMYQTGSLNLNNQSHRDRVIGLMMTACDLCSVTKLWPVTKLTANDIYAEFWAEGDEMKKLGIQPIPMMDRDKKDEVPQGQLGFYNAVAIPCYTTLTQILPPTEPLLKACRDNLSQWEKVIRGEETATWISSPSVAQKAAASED
# ASSAY_REMARKS: In vitro assay PDE10A, human clone (SPA, 3H-cAMP hydrolysis)
# Assay type: biochemical
# CONDITION_DETAILS: human clone by default (no (r) mark); read-out: hPDE10A2 or rPDE10A2 Emax
The label is yes (1) for Emax below 70% and no (0) for Emax equal to or exceeding 70%.

{"columns": ["SMILES_ENTRY", "LABEL"],
 "data": [
  ["C[C@@H]1CCN(C(=O)c2cnccn2)C[C@H]1c1cc(C(F)F)nc2ncnn12", "yes (1)"],
  ["Cc1cc(C(=O)N2CC[C@@H](C)[C@H](c3cc(C)nc4ncnn34)C2)cc(OC(F)F)n1", "no (0)"],
  ["Cc1cc(C(=O)N2[C@H]3CC[C@H](c4cc(C(F)F)nc5ncnn45)[C@@H]2CC3)cc(F)c1F", "no (0)"],
  ["C[C@@H]1CCN(C(=O)c2ccncc2Cl)C[C@H]1c1cc(C(F)F)nc2ncnn12", "yes (1)"]
]}

Answer whether the compound `Cc1nc(C(F)(F)F)ccc1C(=O)N1CC[C@@H](C)[C@H](c2cc(C(F)F)nc3ncnn23)C1` has Emax strictly less than 70%
yes (1)

Answer whether the compound `CC(C)n1ccc2cc(C(=O)N3[C@H]4CC[C@H](c5cc(C(F)F)nc6ncnn56)[C@@H]3CC4)ccc21` has Emax strictly less than 70%
no (0)

Answer whether the compound `CN(C)c1ccc(C(=O)N2[C@H]3CC[C@H](c4cc(C(F)F)nc5ncnn45)[C@@H]2CC3)cc1` has Emax strictly less than 70%
no (0)

Answer whether the compound `C[C@@H]1CCN(C(=O)c2ncccc2C(F)(F)F)C[C@H]1c1cc(C(F)F)nc2ncnn12` has Emax strictly less than 70%
yes (1)

----------
The entries below come with measured IC50 values attached.
# TESTED_SYSTEM: Human recombinant PDE10A (hPDE10A) (Homo sapiens, UniProt Q9Y233)
# Construct: His tag (inferred from metal chelate purification); made in house; host or cells: Sf9 insect cells (baculovirus)
# ASSAY_REMARKS: In vitro assay PDE10A, human clone (SPA, 3H-cAMP hydrolysis)
# Assay type: biochemical
# CONDITION_DETAILS: human clone (h), default; read-out: hPDE10A2 pIC50 (converted)
Write the number in µM without appending the unit.

{"columns": ["SMILES_ENTRY", "IC50, µM"],
 "data": [
  ["Cc1nn(C)cc1C(=O)N1CC[C@@H](C)[C@H](c2cc(C(F)F)nc3ncnn23)C1", 0.417]
]}

Let's switch to this compound now.
Recorded IC50 for `Cc1nc(C)c(C(=O)N2CC[C@@H](C)[C@H](c3cc(C(F)F)nc4ncnn34)C2)s1` with Human recombinant PDE10A (hPDE10A) (Homo sapiens, UniProt Q9Y233), please?
3.31
